# Tgt: Integrin alpha-V/beta-3 (Homo sapiens, UniProt P05106+P06756)
# Experiment description: Cell adhesion of alphaV-beta3 integrin expressed in CHO-K1 cell to osteopontin (OPN)
# Format: cell-based
Measurement kind: pIC50
Please treat pIC50 as minus the base-10 logarithm of the molar concentration.

Look up and state reported pIC50 for O=C(O)CC1c2ccccc2C(=O)N(CC(=O)NCc2ccc(Nc3nc4ccccc4[nH]3)cc2)c2ccccc21 (stereo unspecified)
7.00

----------
# Tgt: Integrin alpha-V/beta-3 (Homo sapiens, UniProt P05106+P06756)
# Experiment description: Affinity against alpha V-beta3 integrin via competitive ELISA using vitronectin as natural ligand
# Assay type: protein-complex assay
Measurement kind: IC50 (µM)
Expressed in µM, but write only the number.

{"columns": ["Molecule", "IC50 (µM)"],
 "data": [
  ["O=C(O)CC1c2ccccc2C(=O)N(CCCCc2ccc(NC(=O)NCc3ccccc3)cc2)c2ccccc21 (stereo not given)", 10]
]}

Look up and state reported IC50 for NC(N)=Nc1ccc(CNC(=O)CN2C(=O)c3ccccc3C(CC(=O)O)c3ccccc32)cc1 (stereo not given)
0.084

Look up and state reported IC50 for O=C(O)CC1c2ccccc2C(=O)N(CC(=O)Nc2ccc(-c3nc4ccccc4[nH]3)cc2)c2ccccc21 (stereo not given)
5

Look up and state reported IC50 for O=C(O)CC1c2ccccc2C(=O)N(CC(=O)NCc2cc(-c3nc4ccccc4[nH]3)cs2)c2ccccc21 (stereo not given)
0.1

Look up and state reported IC50 for O=C(O)CC1c2ccccc2C(=O)N(CC(=O)NCc2cccc(-c3nc4ccccc4[nH]3)c2)c2ccccc21 (stereo not given)
10

Look up and state reported IC50 for O=C(O)CC1c2ccccc2C(=O)N(CC(=O)NCc2ccc(OC(=O)NCc3ccccc3)cc2)c2ccccc21 (stereo not given)
10

Look up and state reported IC50 for Cc1cc2nc(-c3ccc(CNC(=O)CN4C(=O)c5ccccc5C(CC(=O)O)c5ccccc54)cc3)[nH]c2cc1C (stereo not given)
0.22

Look up and state reported IC50 for O=C(O)CC1c2ccccc2C(=O)N(CC(=O)NCc2ccc(Nc3ccccn3)cc2)c2ccccc21 (stereo not given)
5

Look up and state reported IC50 for O=C(O)CC1c2ccccc2C(=O)N(CC(=O)NCc2ccc(-c3nc4ccccc4[nH]3)s2)c2ccccc21 (stereo not given)
0.5

Look up and state reported IC50 for O=C(O)CC1c2ccccc2C(=O)N(CC(=O)NCc2ccc(-c3nc4cc(Cl)ccc4[nH]3)cc2)c2ccccc21 (stereo not given)
0.62
